B1: Protein S100-G, residues 1 to 79; numbered along this chain, P02633 (parent)
chain: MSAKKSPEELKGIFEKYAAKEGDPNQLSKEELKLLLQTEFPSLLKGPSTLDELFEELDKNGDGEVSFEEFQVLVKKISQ

variants of: B1; assay: abundance fitness (aPCA) (normalised: wild type 0, dead -1); higher = more abundant; growth selection in yeast, the domain comes from the species named; conditions: Bos taurus
Where abundance fitness equals or exceeds -0.06, the correct label is fulfilled; where it does not, the label is not fulfilled.

mutant_label=S66Y class_name="not fulfilled"
mutant_label=K16W class_name="not fulfilled"
mutant_label=L57Q class_name=fulfilled
mutant_label=K75R class_name="not fulfilled"
mutant_label=S42Y class_name=fulfilled
mutant_label=I13T class_name="not fulfilled"
mutant_label=S78L class_name="not fulfilled"
mutant_label=F54Y class_name=fulfilled
mutant_label=L32Y class_name="not fulfilled"
mutant_label=L53E class_name=fulfilled
mutant_label=L57D class_name=fulfilled
mutant_label=T38H class_name=fulfilled
mutant_label=Y17R class_name="not fulfilled"
mutant_label=F14M class_name="not fulfilled"
mutant_label=Q79L class_name=fulfilled
mutant_label=L43R class_name="not fulfilled"
mutant_label=G61R class_name=fulfilled
mutant_label=N60T class_name=fulfilled
mutant_label=K45D class_name=fulfilled
mutant_label=Q26H class_name="not fulfilled"
mutant_label=D51W class_name="not fulfilled"
mutant_label=P24H class_name=fulfilled
mutant_label=L57P class_name=fulfilled
mutant_label=K20M class_name=fulfilled
mutant_label=K75W class_name="not fulfilled"
mutant_label=Q71Y class_name="not fulfilled"
mutant_label=F54A class_name=fulfilled
mutant_label=E21N class_name=fulfilled
mutant_label=D62E class_name=fulfilled
mutant_label=F14W class_name="not fulfilled"
mutant_label=E31H class_name=fulfilled
mutant_label=G22S class_name="not fulfilled"
mutant_label=A3E class_name="not fulfilled"
mutant_label=Q37W class_name="not fulfilled"
mutant_label=F70D class_name="not fulfilled"
mutant_label=Q71G class_name=fulfilled
mutant_label=E31M class_name=fulfilled
mutant_label=E52T class_name=fulfilled
mutant_label=F67P class_name="not fulfilled"
mutant_label=L73V class_name=fulfilled
mutant_label=S6W class_name="not fulfilled"
mutant_label=L32K class_name="not fulfilled"
mutant_label=E56W class_name="not fulfilled"

Entry source: the Human Domainome abundance scans (Beltran et al. 2025)
